read-out: CD40, CD40 (gene 958); assay: BSK_SAg_CD40: BioMAP Diversity Plus: SAg Assay for CD40 Biomarker Activity (AID 2283088); conditions: primary human HUVEC with PBMC; actives raise or lower the signal
The source made the active and inactive calls. How the source made its calls: active means hit-call score of the fitted dose curve at least 0.9, where 1 is the maximum; inactive means score below 0.9.
Classes used: 1 (active), -1 (inactive)

>>> print(df.to_string())
                             compound_smiles  class_name
 0                         CC=C(C)C=CC=C(C)C           1
 1                            C=CCCCCCCCCC=O          -1
 2                  CC/C=C\CCOC(=O)c1ccccc1O           1
 3                         O=C1CCCCCCCCCCCN1          -1
 4              COc1ccc(C(=O)c2ccccc2)c(O)c1          -1
 5            Oc1ccc(/C=C/c2cc(O)cc(O)c2)cc1          -1
 6                              Nc1cccc(N)n1          -1
 7         CC/C=C\C/C=C\C/C=C\CCCCCCCC(=O)OC           1
 8                          O=C1CCCCCCCCCCC1          -1
 9            COC(OC)(C(=O)c1ccccc1)c1ccccc1          -1
10  CC(C)[N+](C)(CCOC(=O)C1c2ccccc2Oc2ccccc21)C(C)C          -1
11              CCCCCCOC(=O)CCCCC(=O)OCCCCCC          -1
12                   Nc1nc(N)nc(-c2ccccc2)n1          -1
13                         C=CC(=O)NC(C)(C)C          -1
14                  CC1(C)CC(O)CC(C)(C)N1[O]          -1
